Molecular target: AMP-activated protein kinase, AMPK (Homo sapiens) (UniProt P54646+O43741+P54619+Q9UGJ0+Q9Y478+Q13131+Q9UGI9)
Experiment: AMP-dependent Kinase enzyme assay. An in vitro enzyme assay that detects ADP turnover that is directly proportional to AMPK activity. This uses naive AMPK that is activated during the assay with MK-8722
Format: functional
Set-up: scale not given: direction of the effect not stated beside the values
Conditions: 30 µM
assayEndpoint: Percent Effect (%)
The response must be a number in % with no trailing unit.

Would you please look over these solved cases?
# molecule, Percent Effect [%]
rows = [
    ("COCc1nc(N(C)C)ncc1C(=O)Nc1ccn(C)n1", -5.52),
    ("O=C(NCCN1CCCCCC1=O)c1ccn(-c2ccc(F)cc2)n1", -9.65),
    ("Cc1nc(N2CCCC2)ncc1-c1cc(O)nc(N2CCCC2)n1", 4.03),
    ("CCNC(=O)Nc1ccc2c(ccn2CC(=O)N(CC)CC)c1", -2.69),
    ("COc1cc(CNC(=O)NCc2c(C)cc(C)[nH]c2=O)ccc1C", -0.139),
]

Turning now to a further molecule:
-- ask Form field: reported Percent Effect of COc1ccc(CC(=O)N2CCCC2Cn2cccn2)cc1F (stereo unspecified)
-- reply -8.2

Value source: ChEMBL document CHEMBL3988442
